Consider the following compounds and their measured %NaF readings.
- assayedTarget: [Glu¹¹³]βAR (Mesocricetus auratus, UniProt P04274, D113E)
- Sequence (P04274 whole entry D113E): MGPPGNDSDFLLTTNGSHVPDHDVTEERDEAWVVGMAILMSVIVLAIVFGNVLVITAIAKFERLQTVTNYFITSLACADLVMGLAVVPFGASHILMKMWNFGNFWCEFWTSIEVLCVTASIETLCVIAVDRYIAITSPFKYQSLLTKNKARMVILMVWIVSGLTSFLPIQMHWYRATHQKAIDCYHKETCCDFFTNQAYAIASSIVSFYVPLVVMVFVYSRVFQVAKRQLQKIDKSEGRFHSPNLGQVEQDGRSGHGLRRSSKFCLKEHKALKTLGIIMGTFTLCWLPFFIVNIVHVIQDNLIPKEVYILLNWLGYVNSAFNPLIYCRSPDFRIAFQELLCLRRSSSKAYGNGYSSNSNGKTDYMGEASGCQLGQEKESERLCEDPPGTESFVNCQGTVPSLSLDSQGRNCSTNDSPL
- protocolSummary: Adenylyl cyclase stimulation in membranes of cell lines expressing the receptor
- statedConditions: (Glu^113)βAR; percentage of maximal stimulation by 10 mM NaF; maximum concentration 10⁻³ M; Table 3
Record the value in %, omitting the unit from your answer.

# compound, assayedTarget, val
rows = [
    ("CC(C)NCC(O)COc1ccccc1N1CCOCC1 (centres unmarked)", "[Glu¹¹³]βAR (Mesocricetus auratus, UniProt P04274, D113E)", 0),
    ("CC(C)NCC(O)COc1ccc(-c2ncc[nH]2)cc1 (centres unmarked)", "[Glu¹¹³]βAR (Mesocricetus auratus, UniProt P04274, D113E)", 0),
    ("Cc1ccc(OCC(O)CNC(C)C)c2c1CCC2 (centres unmarked)", "[Glu¹¹³]βAR (Mesocricetus auratus, UniProt P04274, D113E)", 6),
    ("CC(C)NCC(O)COc1ccccc1 (centres unmarked)", "[Glu¹¹³]βAR (Mesocricetus auratus, UniProt P04274, D113E)", 0),
]

Now look at this entry.
Form field %NaF, entry CC(C)NCC(O)COc1cccc2[nH]ccc12 (centres unmarked) : 35
